System: UACC-257 melanoma
measurement protocol: NCI tumour cell line growth inhibition, 48 h
assay readout: TGI

O=C1CC(=O)NC(=NN2C(=O)/C(=C/C(=O)c3ccco3)N=C2c2ccccc2)N1 ... > 100 µM
CN[C@@H](C)C(=O)N[C@H](C(=O)N1CCC[C@H]1C(=O)N[C@H]1c2ccccc2C[C@H]1OCC#CC#CCO[C@@H]1Cc2ccccc2[C@@H]1NC(=O)[C@@H]1CCCN1C(=O)[C@@H](NC(=O)[C@H](C)NC)C1CCCCC1)C1CCCCC1 ... 28.8 µM
O=C(N/N=C/c1ccc2c(c1)OCO2)Nc1ccccc1Cl ... > 100 µM
O=C1C(=O)c2c(oc(=O)c3ccccc23)-c2ccccc21 ... > 25 µM
COc1cccc(OC/C(N=Cc2cccnc2)=N/NC(=O)c2ccncc2)c1 ... > 100 µM

response.value for CCOC(=O)Nc1nc2ccc(Cn3cccc3)cc2[nH]1 (field: TGI) = 26.2 µM

For COc1cc(/C=C/C(=O)CC(=O)/C=C/c2cc(OC)c(OC)c(OC)c2)cc(OC)c1OC the compound record lists TGI as 31.1 µM

Short answer for CC/C(C)=C1\CCC(CN2CCOCC2)C1=O (stereo not given) : TGI was 31.5 µM

Lab note: measured TGI of C[C@]12C[C@H](c3ccccc3)Nc3ccccc3N1C(c1ccccc1)=NO2 was > 100 µM

get_value(item= COC(=O)C1=C(O)C(C(=O)OC)[C@]2(O)[C@H](C(=O)OC)[C@H]1C[C@@H](c1ccc(F)cc1)[C@H]2C(=O)OC (stereo not given in full) , readout=TGI) returns 41.9 µM

====

System: U251 CNS
measurement protocol: NCI tumour cell line growth inhibition, 48 h
Where a SMILES comes first, the peptide text is derived from it. [ ]: non-standard residue; d: D form. Ac5c = NC1(C(=O)O)CCCC1
Each entry gets no if its TGI stays under 5 µM, and yes if its TGI is 5 µM or above.

CN[C@@H](C)C(=O)N[C@H](C(=O)N1CCC[C@H]1C(=O)N[C@H]1c2ccccc2C[C@H]1OCC#CC#CCO[C@@H]1Cc2ccccc2[C@@H]1NC(=O)[C@@H]1CCCN1C(=O)[C@@H](NC(=O)[C@H](C)NC)C1CCCCC1)C1CCCCC1 ... no
OC1(CCc2ccccc2)COC(C(F)(F)F)(C(F)(F)F)C1 (stereo not given) ... yes

Decide: is the reported value of TGI for NC1(C(=O)NC2(C(=O)O)CCCC2)CCCC1 (H-[Ac5c]-[Ac5c]-OH) equal to or greater than 5 µM?
yes

API: above_or_equal(metric=TGI, cutoff=5 µM) for item COCC(N=CN1CCCc2ccccc2[C@@H]1CCCCl)C(C)(C)C (stereo not given in full)
yes

Item C/C1=C/C(C)CC(C)OC(=O)C(C)NC(=O)C(Cc2ccc(O)c(I)c2)N(C)C(=O)CNC(=O)C(C)C1 (stereo not given) with TGI of 5 µM or above?
no

TGI >= 5 µM for OC(CCN1CCCCC1)(c1ccccc1)c1ccccc1 ?
yes

Is it the case that CC1(C)C2CCC3=C(CCC4(C)C5C[C@](C)(C(=O)O)CC[C@]5(C)CC[C@]34C)[C@@]2(C)CC[C@@H]1O (stereo not given in full) has TGI reaching or exceeding 5 µM?
yes

Source: PubChem BioAssay (NCI)
